Tested on: Micrococcus luteus
protocolDescription: Antimicrobial activity against Micrococcus luteus ATCC 4698 assessed as growth inhibition by broth dilution method
Assay type: functional
Would you kindly list MIC for each of these molecules?
Numbers only, in µg/mL.

Here are 5 molecules together with their reported answers.
molecule	valueUnits	dataValue
COc1cc(C2SCC(=O)N2CCN2CCNCC2)ccc1O (stereo unspecified)	µg/mL	4.68
O=C1CSC(c2ccco2)N1CCN1CCNCC1 (stereo unspecified)	µg/mL	75
O=C1CSC(c2ccc(O)cc2)N1CCN1CCNCC1 (stereo unspecified)	µg/mL	9.37
O=C1CSC(c2ccccc2)N1CCN1CCNCC1 (stereo unspecified)	µg/mL	75
COc1ccc(C2SCC(=O)N2CCN2CCNCC2)cc1 (stereo unspecified)	µg/mL	9.37

Proceed to the following item.
Field request: MIC | item: COc1cc(C2C(Cl)C(=O)N2CCN2CCN(C(=O)CCl)CC2)ccc1O (stereo unspecified)
4.68

###

Would you kindly list MIC for each of these compounds?
Tested on: Microsporum canis
protocolDescription: Antimicrobial activity against Arthroderma otae ATCC 11622 assessed as growth inhibition by broth dilution method
Format: functional
Give bare numbers, in µg/mL.

Here are 5 compounds together with their reported answers.
compound	valueUnits	dataValue
O=C1CSC(c2ccccc2O)N1CCN1CCNCC1 (stereo unspecified)	µg/mL	300
COc1ccc(C2SCC(=O)N2CCN2CCNCC2)cc1O (stereo unspecified)	µg/mL	9.37
COc1ccc(C2SCC(=O)N2CCN2CCNCC2)cc1 (stereo unspecified)	µg/mL	18.8
O=C(CCl)N1CCN(CCN2C(=O)C(Cl)C2c2ccccc2)CC1 (stereo unspecified)	µg/mL	75
COc1cc(C2SCC(=O)N2CCN2CCNCC2)ccc1O (stereo unspecified)	µg/mL	18.8

Proceed to the following item.
Field request: MIC | item: COc1ccc(C2C(Cl)C(=O)N2CCN2CCN(C(=O)CCl)CC2)cc1O (stereo unspecified)
18.8

###

Test system: Micrococcus luteus
protocolDescription: Antimicrobial activity against Micrococcus luteus ATCC 4698 assessed as growth inhibition by broth dilution method
Assay type: functional
Would you kindly list MIC for each of these molecules?
One number for each entry, in µg/mL.

Count: 6. Required value per item: MIC.
1. O=C1CSC(c2cccc(O)c2)N1CCN1CCNCC1 (stereo unspecified)
2. COc1ccc(C2C(Cl)C(=O)N2CCN2CCN(C(=O)CCl)CC2)cc1O (stereo unspecified)
3. COc1ccc(C2SCC(=O)N2CCN2CCNCC2)cc1O (stereo unspecified)
4. O=C(CCl)N1CCN(CCN2C(=O)C(Cl)C2c2ccccc2O)CC1 (stereo unspecified)
5. O=C(CCl)N1CCN(CCN2C(=O)C(Cl)C2c2cccc(O)c2)CC1 (stereo unspecified)
6. O=C(O)c1cn(C2CC2)c2cc(N3CCNCC3)c(F)cc2c1=O [CIPROFLOXACIN]

18.8
4.68
9.37
75
18.8
2.34

###

System: Salmonella typhi
protocolDescription: Antimicrobial activity against Salmonella enterica subsp. enterica serovar Typhi ATCC 19430 assessed as growth inhibition by broth dilution method
Assay type: functional
metricName: MIC (µg/mL)
One number for each entry, in µg/mL.

molecule	studySystem	dataValue
O=C1CSC(c2ccco2)N1CCN1CCNCC1 (stereo unspecified)	Salmonella typhi	75

Count: 2. Required value per item: MIC.
1. O=C(CCl)N1CCN(CCN2C(=O)C(Cl)C2c2ccccc2O)CC1 (stereo unspecified)
2. COc1ccc(C2SCC(=O)N2CCN2CCNCC2)cc1 (stereo unspecified)

1: 75; 2: 4.68

Count: 3. Required value per item: MIC.
1. COc1ccc(C2C(Cl)C(=O)N2CCN2CCN(C(=O)CCl)CC2)cc1 (stereo unspecified)
2. O=C1CSC(c2ccc(O)cc2)N1CCN1CCNCC1 (stereo unspecified)
3. O=C(CCl)N1CCN(CCN2C(=O)C(Cl)C2c2ccco2)CC1 (stereo unspecified)

1. 9.37
2. 9.37
3. 150

###

Test system: Micrococcus luteus
protocolDescription: Antimicrobial activity against Micrococcus luteus ATCC 4698 assessed as growth inhibition by broth dilution method
Format: functional
metricName: MIC (µg/mL)
Give bare numbers, in µg/mL.

compound	studySystem	valueUnits	MIC
O=C(CCl)N1CCN(CCN2C(=O)C(Cl)C2c2ccco2)CC1 (stereo not given)	Micrococcus luteus	µg/mL	150
COc1ccc(C2C(Cl)C(=O)N2CCN2CCN(C(=O)CCl)CC2)cc1 (stereo not given)	Micrococcus luteus	µg/mL	9.37
O=C(CCl)N1CCN(CCN2C(=O)C(Cl)C2c2ccccc2)CC1 (stereo not given)	Micrococcus luteus	µg/mL	18.8

Count: 2. Required value per item: MIC.
1. O=C(CCl)N1CCN(CCN2C(=O)C(Cl)C2c2ccc(O)cc2)CC1 (stereo not given)
2. O=C1CSC(c2ccccc2O)N1CCN1CCNCC1 (stereo not given)

1. 9.37
2. 150

###

Would you kindly list MIC for each of these molecules?
Tested on: Microsporum canis
protocolDescription: Antimicrobial activity against Arthroderma otae ATCC 11622 assessed as growth inhibition by broth dilution method
Format: functional
Numbers only, in µg/mL.

molecule	valueUnits	MIC
O=C1CSC(c2ccccc2)N1CCN1CCNCC1 (stereo unspecified)	µg/mL	37.5
O=C(CCl)N1CCN(CCN2C(=O)C(Cl)C2c2ccc(O)cc2)CC1 (stereo unspecified)	µg/mL	9.37
O=C1CSC(c2ccc(O)cc2)N1CCN1CCNCC1 (stereo unspecified)	µg/mL	18.8

Count: 7. Required value per item: MIC.
1. O=C1CSC(c2ccco2)N1CCN1CCNCC1 (stereo unspecified)
2. COc1cc(C2C(Cl)C(=O)N2CCN2CCN(C(=O)CCl)CC2)ccc1O (stereo unspecified)
3. COc1ccc(C2C(Cl)C(=O)N2CCN2CCN(C(=O)CCl)CC2)cc1 (stereo unspecified)
4. O=C(CCl)N1CCN(CCN2C(=O)C(Cl)C2c2cccc(O)c2)CC1 (stereo unspecified)
5. O=C(CCl)N1CCN(CCN2C(=O)C(Cl)C2c2ccco2)CC1 (stereo unspecified)
6. Clc1ccccc1C(c1ccccc1)(c1ccccc1)n1ccnc1 [CLOTRIMAZOLE]
7. O=C1CSC(c2cccc(O)c2)N1CCN1CCNCC1 (stereo unspecified)

1: 300; 2: 18.8; 3: 18.8; 4: 75; 5: 150; 6: 4.68; 7: 37.5

Field request: MIC | item: O=C(CCl)N1CCN(CCN2C(=O)C(Cl)C2c2ccccc2O)CC1 (stereo unspecified)
300

###

System: Trichophyton longifusum
protocolDescription: Antimicrobial activity against Trichophyton longifusum ATCC 22397 assessed as growth inhibition by broth dilution method
Assay type: functional
metricName: log10(MIC) (log10 of the value in µg/mL)
Values below are the log10 of the recorded MIC, with µg/mL as the unit.

compound	log10(MIC)
O=C1CSC(c2ccc(O)cc2)N1CCN1CCNCC1 (stereo unspecified)	0.99
COc1ccc(C2SCC(=O)N2CCN2CCNCC2)cc1O (stereo unspecified)	1.27
O=C1CSC(c2ccccc2O)N1CCN1CCNCC1 (stereo unspecified)	2.48
O=C(CCl)N1CCN(CCN2C(=O)C(Cl)C2c2cccc(O)c2)CC1 (stereo unspecified)	1.88
O=C(CCl)N1CCN(CCN2C(=O)C(Cl)C2c2ccco2)CC1 (stereo unspecified)	2.48

Proceed to the following item.
Field request: log10(MIC) | item: O=C1CSC(c2cccc(O)c2)N1CCN1CCNCC1 (stereo unspecified)
1.57

###

Tested on: Salmonella typhi
protocolDescription: Antimicrobial activity against Salmonella enterica subsp. enterica serovar Typhi ATCC 19430 assessed as growth inhibition by broth dilution method
Assay type: functional
Would you kindly list MIC for each of these compounds?
One number for each entry, in µg/mL.

Here are 2 compounds together with their reported answers.
compound	valueUnits	MIC
COc1ccc(C2C(Cl)C(=O)N2CCN2CCN(C(=O)CCl)CC2)cc1O (stereo unspecified)	µg/mL	4.68
O=C(CCl)N1CCN(CCN2C(=O)C(Cl)C2c2cccc(O)c2)CC1 (stereo unspecified)	µg/mL	37.5

Count: 6. Required value per item: MIC.
1. COc1ccc(C2SCC(=O)N2CCN2CCNCC2)cc1O (stereo unspecified)
2. O=C(O)c1cn(C2CC2)c2cc(N3CCNCC3)c(F)cc2c1=O [CIPROFLOXACIN]
3. O=C(CCl)N1CCN(CCN2C(=O)C(Cl)C2c2ccccc2)CC1 (stereo unspecified)
4. O=C(CCl)N1CCN(CCN2C(=O)C(Cl)C2c2ccc(O)cc2)CC1 (stereo unspecified)
5. O=C1CSC(c2cccc(O)c2)N1CCN1CCNCC1 (stereo unspecified)
6. O=C1CSC(c2ccccc2O)N1CCN1CCNCC1 (stereo unspecified)

1. 9.37
2. 2.34
3. 37.5
4. 9.37
5. 18.8
6. 75

###

Test system: Bacillus pumilus
protocolDescription: Antimicrobial activity against Bacillus pumilus ATCC 14884 assessed as growth inhibition by broth dilution method
Format: functional
metricName: MIC (µg/mL)
Answers are plain numbers, in µg/mL.

Count: 5. Required value per item: MIC.
1. O=C(CCl)N1CCN(CCN2C(=O)C(Cl)C2c2ccccc2O)CC1 (stereo unspecified)
2. O=C(CCl)N1CCN(CCN2C(=O)C(Cl)C2c2cccc(O)c2)CC1 (stereo unspecified)
3. COc1cc(C2SCC(=O)N2CCN2CCNCC2)ccc1O (stereo unspecified)
4. COc1ccc(C2SCC(=O)N2CCN2CCNCC2)cc1O (stereo unspecified)
5. O=C1CSC(c2ccccc2O)N1CCN1CCNCC1 (stereo unspecified)

[75, 37.5, 9.37, 9.37, 150]

Count: 6. Required value per item: MIC.
1. O=C(CCl)N1CCN(CCN2C(=O)C(Cl)C2c2ccco2)CC1 (stereo unspecified)
2. COc1cc(C2C(Cl)C(=O)N2CCN2CCN(C(=O)CCl)CC2)ccc1O (stereo unspecified)
3. COc1ccc(C2SCC(=O)N2CCN2CCNCC2)cc1 (stereo unspecified)
4. O=C1CSC(c2ccc(O)cc2)N1CCN1CCNCC1 (stereo unspecified)
5. O=C1CSC(c2ccccc2)N1CCN1CCNCC1 (stereo unspecified)
6. O=C(O)c1cn(C2CC2)c2cc(N3CCNCC3)c(F)cc2c1=O

[75, 9.37, 9.37, 9.37, 75, 2.34]
